STUDY TARGET: T1, CD3 epsilon homodimer protein (UniProt P07766 23-126)
T1 construct: also called CD3 (CD3 epsilon)
T1 sequence (P07766 23-126): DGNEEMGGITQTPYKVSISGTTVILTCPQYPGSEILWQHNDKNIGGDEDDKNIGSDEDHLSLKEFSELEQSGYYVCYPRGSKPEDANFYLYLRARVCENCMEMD
ASSAY PROTOCOL: SPR, antibody over immobilised CD3e homodimer;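 also: SPR at 25 °C with CD3 epsilon homodimer amine-coupled to a CM4 sensor chip and antibody flowed over as analyte in HBS-EP+ running buffer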
MEASURE: KD ratio to GLS3000

[Q] Which KD ratio to GLS3000 value is on record for CE115HA000/GLS3000 H34V (antibody, IgG1, name in Kabat numbering, V domains shown, one-arm IgG1) VH: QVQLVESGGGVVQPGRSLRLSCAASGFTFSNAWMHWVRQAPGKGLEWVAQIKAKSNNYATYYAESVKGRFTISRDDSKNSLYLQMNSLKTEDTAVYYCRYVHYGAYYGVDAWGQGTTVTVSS VL: DIVMTQSPLSLPVTPGEPASISCRSSQSLVHSNRNTYLVWYQQKPGQAPRLLIYKVSNRFSGVPDRFSGSGSGTDFTLKISRVEAEDVGVYYCGQGTQVPYTFGQGTKLEIK ?
[A] 1.04
